Target: T1, cynomolgus monkey CD40-his protein (Acro biosystems, Cat. No. CD0-C52H6) (cynomolgus monkey, UniProt G7PG38 21-193)
T1 construct: Bought protein; not shown: His tag
Test: SPR (Biacore T200), antibody captured on anti-human IgG chip, CD40-his as analyte, 1:1 fit
Procedure: Briefly, a goat anti-human IgG (GE Healthcare, Cat. No. BR100839, human antibody capture kit) was covalently linked to a CM5 chip (GE Healthcare, Cat. No. BR100530, carboxymethylated dextran-coated chip) via the primary amine group using a standard amine coupling kit supplied by Biacore (GE Healthcare, Pittsburgh, PA, USA). Unreacted portions on the biosensor surface were blocked with ethanolamine. […] KD, Kₐ, and Kd values were determined.
Some binders, each annotated with its measured kon.
Please respond with the number in M⁻¹ s⁻¹ and leave the unit unwritten.

Some solved cases for reference:
{"columns": ["Binder", "Measured Metric", "Reported Result"],
 "data": [
  ["humanized antibody huC1H1-V1 (antibody, human IgG2, kappa, V domains shown, Human IgG2 / kappa) VH: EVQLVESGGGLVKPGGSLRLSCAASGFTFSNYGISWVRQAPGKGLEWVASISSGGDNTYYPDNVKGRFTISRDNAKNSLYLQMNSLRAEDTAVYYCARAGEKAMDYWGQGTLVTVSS VL: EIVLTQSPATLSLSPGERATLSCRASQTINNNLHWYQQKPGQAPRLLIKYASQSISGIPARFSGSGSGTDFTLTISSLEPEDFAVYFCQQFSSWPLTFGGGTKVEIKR", "kon", "2.14e+06"],
  ["BM1 (dacetuzumab) (antibody, human IgG1, kappa, V domains shown, Benchmark antibody, prepared in-house; also called CD40-BM1; benchmark) VH: EVQLVESGGGLVQPGGSLRLSCAASGYSFTGYYIHWVRQAPGKGLEWVARVIPNAGGTSYNQKFKGRFTLSVDNSKNTAYLQMNSLRAEDTAVYYCAREGIYWWGQGTLVTVSS VL: DIQMTQSPSSLSASVGDRVTITCRSSQSLVHSNGNTFLHWYQQKPGKAPKLLIYTVSNRFSGVPSRFSGSGSGTDFTLTISSLQPEDFATYFCSQTTHVPWTFGQGTKVEIKR", "kon", 764000],
  ["chimeric antibody C1H1 (antibody, human IgG1, kappa, V domains shown, also called Chimeric C1H1) VH: EVKLVESGGGLVKPGASLKLSCAASGFTFSNYGISWVRQTSDKRLEWVASISSGGDNTYYPDNVKGRFTISRENAKNTLYLQMSSLKSEDTALYYCARAGEKAMDYWGQGTSVTVSS VL: DIVLTQSPVTLSVTPGDSVSLSCRASQTINNNLHWYQQKSHESPRLLIKYASQSISGIPSRFSGSGSGTDFTLSINSVETEDFGIYFCQQFSSWPLTFGAGTKLELKR", "kon", "2.54e+06"]
]}

We next turn to a different binder, shown below.
# kon lookup, item humanized antibody huC1H1-V2 (antibody, human IgG2, kappa, V domains shown, Human IgG2 / kappa) VH: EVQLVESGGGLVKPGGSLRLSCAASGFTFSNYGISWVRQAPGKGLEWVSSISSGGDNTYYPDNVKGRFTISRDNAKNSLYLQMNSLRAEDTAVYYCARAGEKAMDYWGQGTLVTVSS VL: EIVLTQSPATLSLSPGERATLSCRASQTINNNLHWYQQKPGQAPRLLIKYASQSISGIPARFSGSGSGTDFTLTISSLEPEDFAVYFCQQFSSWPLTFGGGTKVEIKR 2.56e+06

All figures here come from patent US20240398942A1.
